Test system: PPARg homodimer (NR concentration 180 nM)
test-summary: PBM binding z-score (relative to random genomic background probes); higher = stronger binding; sequences stand for … in GC…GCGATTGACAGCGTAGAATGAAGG
Here, each record is paired with measured PBM binding z-score data.
Write no unit; give the number alone.

Consider the following illustrative entries.
GCGACTGGGGCAACAGCAGGTTACCATAACTTAA; 0.0811
CCTACTGGGCCACCAGGTCATTGATATCAACGTT; 1.02
CGAACTAGGTCAGAACAGGACAGAGAAGGATGAT; 0.782
ACTAGCAGGCCAAGGGTCACTCTAGATTAGTCCG; 2.32

## Input Give the measured PBM binding z-score of CCACACAGGTGAAAGGTAACTCAGTCTGGTACGC .
## Output 1.3

## Input Give the measured PBM binding z-score of AGAATGAGGTTATACGTAGATCAGGGGAGAAAGT .
## Output 0.74

## Input Give the measured PBM binding z-score of ACAGACAGGTGAGTGAAGGTAACTCGGCTGGACG .
## Output 0.0145

## Input Give the measured PBM binding z-score of AATATAGGGTCATCGTAGGCCAGAGTACGCACAG .
## Output 2.4

## Input Give the measured PBM binding z-score of CGTCAAAGTTGAAGGTAACGTAACAGAAAGCAGC .
## Output 0.228

====

System: PPARg:RXRa DBDmut IVT, anti-RXR (DBD mutation: RXRa K156A/R161A, NR concentration 270 nM, RXRa partner concentration 90 nM)
test-summary: PBM binding z-score (relative to random genomic background probes); higher = stronger binding; sequences stand for … in GC…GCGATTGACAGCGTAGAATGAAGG
Here, each record is paired with measured PBM binding z-score data.
Write no unit; give the number alone.

Consider the following illustrative entries.
GCATATAGGTAATACAAGGGGAAAGTCCGATTGT; 4.01
TGAATGAGGTTTTAAGATCAGGGAACGTTGCAAA; -0.427
AATACAGGGTCATCGTAGGCCAGTGTACGCACAG; 2.67
CCAGACAGGTGAAAGGTACCTCAGTCTGGTACGC; 1.66
CCGACTGGGGCAGAGAGGTTACCATACCATCCGG; 2.02

## Input Give the measured PBM binding z-score of CCTACTAGGCCATCAGGTCATTGATATCAACGTT .
## Output 6.04

## Input Give the measured PBM binding z-score of AGTCAAAGTTCACCAGGTAACGTAAGATTCAGCT .
## Output 1.37

====

Test system: THRa homodimer (NR concentration 90 nM)
test-summary: PBM binding z-score (relative to random genomic background probes); higher = stronger binding; sequences stand for … in GC…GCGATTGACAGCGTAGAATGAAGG
Here, each record is paired with measured PBM binding z-score data.
Write no unit; give the number alone.

Consider the following illustrative entries.
GATACAGGGTCAAGGCCAGCGTACGCGTATTGAT; 1.43
TCTCCTAGGTCAGTTGGTCAGCTAACGAGCTGCC; 0.747
AGTATGAGGTTACCAAAGATCAGGGAAACGCTTG; 0.98
TCATATAGGTAAATGCTAAGTGAAAGTCCGATCT; -0.264
GGAACGAGGGCAAGTTGATTGCAGAGTTTGATGG; -0.0249

We next turn to a different sequence, shown below.
## Input Give the measured PBM binding z-score of TCCAGTAGGTTAGGGGCATTCAGAATGGCGTCGA .
## Output 0.179

The measured values listed here are drawn from the supplement of paper PMC6555819.
